System: Human immunodeficiency virus 1
Experiment Description: Antiviral activity against wild type HIV1 3B assessed as protection as protection against virus-induced cytopathogenicity after 4 days by MTT assay
Format: functional
Particulars: Human immunodeficiency virus 1, 3B, 96 h
pEC50: −log10 of the molar value.
# pEC50 per entry
Metric: pEC50

1) O=c1c2ccccc2sn1/N=C/C=C/c1ccccc1: < 4.74
2) O=c1c2ccccc2sn1/N=C/c1ccc([N+](=O)[O-])cc1: 4.35
3) Cc1ccc2sn(/N=C/c3ccc([N+](=O)[O-])cc3)c(=O)c2c1: < 4.00
4) Cc1ccc2sn(/N=C/c3ccc(O)c(O)c3)c(=O)c2c1: < 4.31
5) Cc1ccc2sn(/N=C/c3cccc(Cl)c3)c(=O)c2c1: < 4.23
6) O=c1c2ccccc2sn1/N=C/c1ccccc1[N+](=O)[O-]: 4.72
7) Cc1ccc2sn(/N=C/c3ccccc3O)c(=O)c2c1: < 4.52
8) Cc1ccc2sn(/N=C/c3ccc4c(c3)OCO4)c(=O)c2c1: 4.48
9) O=c1c2ccccc2sn1/N=C/c1ccccc1: 4.96
10) Cc1ccc2sn(/N=C/c3ccccc3)c(=O)c2c1: ≤ 4.48
11) O=c1c2ccccc2sn1/N=C/c1cccc(O)c1: < 4.82
12) COc1ccc(/C=N/n2sc3ccccc3c2=O)cc1: < 4.72
13) COc1cc(/C=N/n2sc3ccc(C)cc3c2=O)ccc1O: < 4.80
14) COc1cc(/C=N/n2sc3ccccc3c2=O)ccc1O: < 4.82
15) O=c1c2ccccc2sn1/N=C/c1ccccc1Cl: 4.70
16) O=c1c2ccccc2sn1/N=C/c1cccc(F)c1: < 4.82
17) Cc1ccc2sn(/N=C/c3ccc([N+](=O)[O-])cc3[N+](=O)[O-])c(=O)c2c1: < 4.00

meta.source: ChEMBL document CHEMBL1137687
